# SYSTEM NAME: sodium-proton exchanger of subtype 3 (NHE3) (Homo sapiens, UniProt P48764)
# Construct: expressed in transfected cells
# Sequence (P48764 26-834, species assumed): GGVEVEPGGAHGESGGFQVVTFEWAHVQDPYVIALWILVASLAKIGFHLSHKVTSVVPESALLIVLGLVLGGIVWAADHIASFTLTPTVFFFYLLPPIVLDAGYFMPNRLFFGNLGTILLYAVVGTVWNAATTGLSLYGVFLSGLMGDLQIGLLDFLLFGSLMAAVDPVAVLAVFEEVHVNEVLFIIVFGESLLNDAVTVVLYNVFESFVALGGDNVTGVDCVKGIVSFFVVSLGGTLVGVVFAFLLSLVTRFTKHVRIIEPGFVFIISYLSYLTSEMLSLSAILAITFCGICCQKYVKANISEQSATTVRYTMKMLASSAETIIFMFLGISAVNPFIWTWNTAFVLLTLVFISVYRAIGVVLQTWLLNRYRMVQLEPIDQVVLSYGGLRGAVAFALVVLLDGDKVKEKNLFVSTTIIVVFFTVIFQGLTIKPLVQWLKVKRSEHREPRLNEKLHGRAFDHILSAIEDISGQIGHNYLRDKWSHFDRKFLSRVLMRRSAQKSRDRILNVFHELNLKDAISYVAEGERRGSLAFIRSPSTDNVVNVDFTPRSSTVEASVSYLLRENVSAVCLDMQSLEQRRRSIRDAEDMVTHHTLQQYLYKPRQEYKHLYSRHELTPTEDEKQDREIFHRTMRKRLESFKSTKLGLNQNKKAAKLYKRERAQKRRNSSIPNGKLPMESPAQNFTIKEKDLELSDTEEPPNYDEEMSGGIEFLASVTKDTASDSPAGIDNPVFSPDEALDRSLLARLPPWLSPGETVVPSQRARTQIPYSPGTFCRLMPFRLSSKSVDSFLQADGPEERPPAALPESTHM
# PROCEDURE TEXT: Recovery of intracellular pH (pHi) after acidification in LAP1 cells stably expressing NHE3 (BCECF fluorescence, FLIPR)
# Type: cell-based
# COND: LAP1 cells stably expressing NHE3; pH recovery after acidification; range 1 is % inhibition at 10 μM; read-out: Activity range (inhibitory effect on NHE3)
// reported IC50 per item

For orientation, consider the following solved cases.
COMPOUND | ASSAY RESULT
Cc1nnc(C)n1-c1ccc(O[C@H]2c3cc(Cl)cc(Cl)c3C[C@@H]2N2CC[C@@H](O)C2)c(Cl)c1 | < 1000 nM
CS(=O)(=O)c1ccc(O[C@H]2c3cc(Cl)cc(Cl)c3C[C@@H]2N2CCC[C@H]2CO)cc1 | 1000 to 10000 nM
CC(=O)Nc1cccc(O[C@H]2c3cc(Cl)cc(Cl)c3C[C@@H]2N2CCC[C@@H](N(C)C)C2)c1 | < 1000 nM

Query string: Entry Cn1ccn(-c2ccc(O[C@H]3c4cc(Cl)cc(Cl)c4C[C@@H]3N3CC[C@@H](O)C3)cc2)c1=O needs its IC50 filled in; supply it.
Result string: < 1000 nM

Query string: Entry NCC1CCN([C@@H]2Cc3ccccc3[C@H]2Oc2ccc(Br)cc2-c2cc[nH]n2)CC1 (racemic) needs its IC50 filled in; supply it.
Result string: 1000 to 10000 nM

Query string: Entry NS(=O)(=O)c1ccc(O[C@H]2c3ccccc3C[C@@H]2N2CCCCC2)cc1 (racemic) needs its IC50 filled in; supply it.
Result string: < 1000 nM

Query string: Entry COc1cccc(F)c1O[C@@H]1c2ccccc2C[C@H]1N1CCC(CN)CC1 (racemic) needs its IC50 filled in; supply it.
Result string: < 1000 nM

Query string: Entry NCC1CCN([C@@H]2Cc3ccccc3[C@H]2Oc2ccc(Br)cc2-c2cc[nH]n2)C1 (mixture of isomers) needs its IC50 filled in; supply it.
Result string: 1000 to 10000 nM

Query string: Entry Cc1c(Cl)ccc(O[C@@H]2c3ccccc3C[C@H]2N2C[C@H]3CNC[C@H]3C2)c1Cl (racemic) needs its IC50 filled in; supply it.
Result string: 1000 to 10000 nM

Query string: Entry N#Cc1csc(-c2ccc(O[C@@H]3c4ccccc4C[C@H]3N3CCC[C@@H](N)C3)cc2)n1 (racemic) needs its IC50 filled in; supply it.
Result string: 1000 to 10000 nM

Query string: Entry CC(=O)Nc1cccc(O[C@H]2c3cc(F)cc(Cl)c3C[C@@H]2N2CCCC2)c1 (racemic) needs its IC50 filled in; supply it.
Result string: 1000 to 10000 nM

Query string: Entry COC(=O)c1nccn1-c1ccc(O[C@H]2c3cc(Cl)cc(Cl)c3C[C@@H]2N2CC[C@@H](O)C2)c(F)c1 needs its IC50 filled in; supply it.
Result string: < 1000 nM

Query string: Entry COc1cc(Cl)cc(O[C@@H]2c3ccccc3C[C@H]2N2CCC[C@H](N)C2)c1 (racemic) needs its IC50 filled in; supply it.
Result string: 1000 to 10000 nM

Query string: Entry CS(=O)(=O)c1ccc(O[C@@H]2c3cc(F)cc(Cl)c3C[C@H]2N2CCC[C@@H](N)C2)cc1 (racemic) needs its IC50 filled in; supply it.
Result string: < 1000 nM

Query string: Entry CS(=O)(=O)c1ccc(O[C@H]2c3cc(F)cc(F)c3C[C@@H]2N2CC[C@@H](O)C2)cc1 needs its IC50 filled in; supply it.
Result string: 1000 to 10000 nM
